- measuredOn: T1, SpoIIIE motor domain (SpoIIIE C-terminal) (Bacillus subtilis, UniProt P21458 177-787)
- T1 sequence: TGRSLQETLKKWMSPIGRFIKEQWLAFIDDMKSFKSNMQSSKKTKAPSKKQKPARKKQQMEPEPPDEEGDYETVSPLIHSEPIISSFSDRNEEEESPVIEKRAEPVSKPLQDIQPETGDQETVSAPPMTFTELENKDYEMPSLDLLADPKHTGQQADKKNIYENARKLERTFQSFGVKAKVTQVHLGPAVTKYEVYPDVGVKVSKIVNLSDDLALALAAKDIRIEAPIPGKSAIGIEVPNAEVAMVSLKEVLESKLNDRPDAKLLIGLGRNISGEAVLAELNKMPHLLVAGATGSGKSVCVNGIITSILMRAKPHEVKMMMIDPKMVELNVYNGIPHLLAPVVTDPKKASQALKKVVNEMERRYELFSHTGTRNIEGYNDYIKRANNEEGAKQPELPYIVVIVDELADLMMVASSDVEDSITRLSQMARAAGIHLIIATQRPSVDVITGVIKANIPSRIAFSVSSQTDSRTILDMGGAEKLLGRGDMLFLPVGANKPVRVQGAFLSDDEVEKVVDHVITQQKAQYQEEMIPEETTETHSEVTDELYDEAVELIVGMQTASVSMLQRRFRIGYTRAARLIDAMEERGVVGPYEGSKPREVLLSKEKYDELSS
- protocolNotes: fluorescence anisotropy
propertyLabel: Kd (nM)
Report the figure in nM without appending any unit label.

Which value of Kd has been reported for DNANS (43 bp, no SRS) (dsDNA) DNA 1: GCGGAGGCGGGAGGCGGAGATCTTACCGCTGTTGAGATCCAGC DNA 2: GCTGGATCTCAACAGCGGTAAGATCTCCGCCTCCCGCCTCCGC in the records?
43
